System: ERK4;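 note: KINOMEscan kinase panel screen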
Construct: gene MAPK4
Details: concentration: 1 μM, replicates: in singlicate; n = 1
Provide the reported %Inh of each item.
Report the value in % with no unit label.

Which %Inh is reported for this compound? COc1cc2ncn(-c3cc(OCc4ccncc4Br)c(C(N)=O)s3)c2cc1OC [GW854278]
4

Which %Inh is reported for this compound? C[C@@H]1CC[C@H](C(=O)NC2CCCCC2)CN1c1cc(-c2ccc3c(N)n[nH]c3c2)nc(N)n1 [GSK2291363]
28

Which %Inh is reported for this compound? Cl.c1ccc(Cn2cnc3cc(Nc4ncnc5ccccc45)ccc32)cc1 [GW272142]
0

Which %Inh is reported for this compound? Cc1cc(Nc2nc(-c3cccc(C)n3)nc3ccccc23)ccn1 [GW872411]
0

Which %Inh is reported for this compound? O=c1cc(N2CCOCC2)nc2n(Cc3ccc(F)c(Cl)c3)ccn12 [GSK2297099]
25

Which %Inh is reported for this compound? FC(F)(F)c1ccc(-c2ncn(CCCN3CCOCC3)c2-c2ccncc2)cc1 [SB-217780]
0

Which %Inh is reported for this compound? COc1cc2ncn(-c3cc(OCc4ccncc4)c(C(N)=O)s3)c2cc1OC [GSK336313]
46

Which %Inh is reported for this compound? Cn1c(=O)c(F)c(Nc2ccc(I)cc2F)c2c(=O)n(OC[C@H](O)CO)cnc21
7

Which %Inh is reported for this compound? Nc1nc(-c2ccccc2F)c(-c2ccnc3ccccc23)s1 [GW560459]
0

Which %Inh is reported for this compound? COc1ccc(Nc2nccc(N3CCC(NS(=O)(=O)c4ccc(NC(C)=O)cc4)C3)n2)cc1 (stereo not drawn) [GSK1379729]
0

Which %Inh is reported for this compound? Nc1n[nH]c2nnc(-c3ccccc3)c(-c3ccccc3)c12 [GW554060]
0

Which %Inh is reported for this compound? COc1cc(Nc2nccc(N3CCC(NC(=O)C(C)c4ccc(Cl)cc4)C3)n2)cc(OC)c1OC (stereo not drawn) [GSK1379757]
12

Which %Inh is reported for this compound? CCC(=O)c1c(-c2ccccc2)c2cc(Cl)ccc2c(=O)n1Cc1ccc(C(=O)O)cc1
0

Which %Inh is reported for this compound? O=C(Nc1n[nH]c2cc(-c3ccccc3F)ccc12)C1CC1 [SB-733371]
0

Which %Inh is reported for this compound? CCC(=O)c1c(-c2ccccc2)c2cc(Cl)ccc2c(=O)n1Cc1cc(S(C)(=O)=O)n(CC(N)=O)n1
0

Which %Inh is reported for this compound? Cc1c(Cn2c(C)nn3c(=O)cc(N4CCO[C@H](C)C4)nc23)cccc1C(F)(F)F [GSK2373690]
2

Which %Inh is reported for this compound? O=C(Nc1n[nH]c2nc(-c3ccccc3)c(Br)cc12)C1CC1 [SB-708998]
0

Which %Inh is reported for this compound? CCc1nc(-c2cccc(C)c2)c(-c2ccncc2)s1
12
